# Tested on: OVCAR-8
# EXPERIMENT NOTES: NCI tumour cell line growth inhibition, 48 h
Activity calls are given as the source filed them. Cut-off read from the data, not from the text of the source: active = GI50 up to about 1.1 µM and inactive = higher.
Pick from 1 = active, -1 = inactive when you respond.

>>> class_name("C=C(Br)C(C)(Cl)CCC(Br)C(C)(C)Cl (stereo not given)")
-1
>>> class_name("Cc1ccc(C(=O)N/N=C2/C(=O)c3c4ccccc4cc4cccc2c34)cc1")
-1

Exercise: Outcome logged for FC(F)(F)c1nc2ccc3[nH]c4c(-c5ccccc5)nccc4c3c2[nH]1 in this assay:
Key: -1

Exercise: Outcome logged for CC(C)(CO[C@H]1C[C@H]2CC[C@@]1(C)C2(C)C)[N+](=O)[O-] in this assay:
Key: -1

Exercise: Outcome logged for CC(=O)O[C@H]1C(=O)[C@]2(C)[C@@H](OC(=O)OCCC(O)CO)C[C@H]3OC[C@@]3(OC(C)=O)[C@H]2[C@H](OC(=O)c2ccccc2)[C@]2(O)C[C@H](OC(=O)[C@H](O)[C@@H](NC(=O)c3ccccc3)c3ccccc3)C(C)=C1C2(C)C (stereo not given in full) in this assay:
Key: 1

Exercise: Outcome logged for COc1cc(C2c3cc4c(cc3OC(Nc3ccccc3)C2C)OCO4)cc(OC)c1OC (stereo not given) in this assay:
Key: -1

Exercise: Outcome logged for Cc1ccc(P(c2ccc(C)cc2)c2ccc(C)cc2)cc1 in this assay:
Key: -1

Exercise: Outcome logged for CCC(=O)NCC1(c2c[nH]c3ccccc23)SCCS1 in this assay:
Key: -1

Exercise: Outcome logged for Cc1cc(S(=O)(=O)Nc2nc3cccnc3[nH]2)c(S)cc1Cl in this assay:
Key: -1

Exercise: Outcome logged for CCCCCCOc1ccc(C(=O)N(C)O)cc1 in this assay:
Key: -1

src = ChEMBL document CHEMBL1201862
